Here's a batch of compounds along with measured IC50 for mTOR (Homo sapiens, UniProt P42345).
QUANTITY_KIND: IC50

INSERT INTO assay_data (chemical_smiles, tested_target, meas_value) VALUES
  ('Cc1ncc(-c2ccc3ncc4c(c3c2)n(-c2cn(C)nc2C)c(=O)n4C)cc1O', 'mTOR (Homo sapiens, UniProt P42345)', '< 3 nM'),
  ('CNc1cncc(-c2ccc3ncc4c(c3c2)n(-c2cn(C(C)C)nc2C)c(=O)n4C)c1', 'mTOR (Homo sapiens, UniProt P42345)', '< 3 nM'),
  ('CNc1cc(-c2ccc3ncc4c(c3c2)n(-c2cn(C)nc2Cl)c(=O)n4C)cnc1COC', 'mTOR (Homo sapiens, UniProt P42345)', '< 3 nM');
